Target: HDAC6 (Homo sapiens)
Construct: purchased Reaction Biology Corporation (assay run by the CRO)
Sequence (Q9UBN7 1-1215): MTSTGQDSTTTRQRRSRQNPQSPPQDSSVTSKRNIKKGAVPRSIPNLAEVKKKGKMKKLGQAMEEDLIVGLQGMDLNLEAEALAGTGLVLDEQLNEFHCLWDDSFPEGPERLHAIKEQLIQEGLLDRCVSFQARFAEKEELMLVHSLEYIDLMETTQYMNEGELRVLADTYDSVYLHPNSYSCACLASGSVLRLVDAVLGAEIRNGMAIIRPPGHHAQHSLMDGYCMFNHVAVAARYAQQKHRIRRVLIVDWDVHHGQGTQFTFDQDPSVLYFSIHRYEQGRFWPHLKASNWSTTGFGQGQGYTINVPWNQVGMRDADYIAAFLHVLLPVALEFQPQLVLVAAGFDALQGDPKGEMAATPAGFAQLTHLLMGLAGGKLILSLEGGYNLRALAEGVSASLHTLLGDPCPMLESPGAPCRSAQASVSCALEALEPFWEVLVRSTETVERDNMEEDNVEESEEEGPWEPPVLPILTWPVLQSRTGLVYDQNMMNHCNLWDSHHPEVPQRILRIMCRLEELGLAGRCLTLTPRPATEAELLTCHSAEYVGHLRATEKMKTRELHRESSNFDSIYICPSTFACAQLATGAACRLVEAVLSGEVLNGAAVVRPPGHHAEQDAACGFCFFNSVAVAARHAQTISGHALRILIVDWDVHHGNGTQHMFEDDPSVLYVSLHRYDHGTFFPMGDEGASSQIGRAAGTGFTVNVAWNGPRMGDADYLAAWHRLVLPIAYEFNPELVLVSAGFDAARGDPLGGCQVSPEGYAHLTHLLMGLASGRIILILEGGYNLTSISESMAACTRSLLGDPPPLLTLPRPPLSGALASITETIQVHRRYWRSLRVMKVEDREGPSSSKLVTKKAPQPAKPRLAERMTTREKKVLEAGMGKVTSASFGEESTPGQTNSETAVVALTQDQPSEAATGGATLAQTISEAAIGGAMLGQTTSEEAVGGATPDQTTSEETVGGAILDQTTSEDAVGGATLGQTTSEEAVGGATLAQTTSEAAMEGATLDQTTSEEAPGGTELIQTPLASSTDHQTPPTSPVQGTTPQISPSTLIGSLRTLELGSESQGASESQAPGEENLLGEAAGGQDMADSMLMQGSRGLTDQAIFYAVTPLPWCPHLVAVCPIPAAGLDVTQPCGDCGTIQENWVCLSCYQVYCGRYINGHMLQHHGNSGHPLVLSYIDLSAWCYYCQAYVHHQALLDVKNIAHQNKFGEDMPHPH
Assay: HDAC6 inhibition, full IC50 measurement (Reaction Biology; fluorogenic p53 peptide RHKK(Ac)AMC)
Type: biochemical
Details: Conc. 1.52E-09 M, t2
Peptide text beside a SMILES is read from it.
readout: HDAC6 activity raw data (signal)
Returns: the value as a bare number; no unit string appended.

For reference, reported HDAC6 activity raw data (signal) for CC(C)C[C@H]1NC(=O)[C@H](Cc2c[nH]c3ccccc23)NC(=O)[C@H](CCCCCS)NC(=O)[C@@H](Cc2ccc(O)cc2)NC(=O)[C@@H](C(C)C)NC(=O)[C@H](Cc2c[nH]cn2)NC(=O)CNC(=O)CNC(=O)[C@@H](CO)NC1=O [des2.2.0, SHA-Trp-dLeu-dSer-Gly-Gly-His-dVal-dTyr] (HELM PEPTIDE1{G.G.H.[dV].[dY].[O=C([C@H](CCCCCS)N[*:1])[*:2]].W.[dL].[dS]}$PEPTIDE1,PEPTIDE1,1:R1-9:R2$$$V2.0) stands at 164682
